tested on: Lung; experiment: Biodistribution in NMRI mouse lung assessed per gram of tissue at 3.7 MBq/mL, iv after 2 mins by gamma counting; assay type: ADME, organism-based; conditions: in vivo
Label Yes when Drug uptake is strictly below 8%; otherwise label No.

| compound | assigned_category |
| --- | --- |
| CNc1ccc2nc(-c3ccc([18F])cc3)sc2c1 | Yes |
| Nc1ccc2nc(-c3ccc([18F])cc3)sc2c1 | No |
| [11CH3]Nc1ccc(-c2nc3ccc(O)cc3s2)cc1 [PITTSBURGH COMPOUND B] | Yes |
| Cc1ccc2nc(-c3ccc([18F])cc3)sc2c1 | No |

----------
tested on: Liver; test: Biodistribution in NMRI mouse liver at 3.7 MBq/mL, iv after 2 mins by gamma counting; format: ADME, organism-based; details: in vivo

| query_smiles | Drug uptake, % |
| --- | --- |
| CNc1ccc2nc(-c3ccc([18F])cc3)sc2c1 | 42.4 |
| CN(C)c1ccc2nc(-c3ccc([18F])cc3)sc2c1 | 41.9 |
| Nc1ccc2nc(-c3ccc([18F])cc3)sc2c1 | 39.8 |
| [11CH3]Nc1ccc(-c2nc3ccc(O)cc3s2)cc1 | 15.6 |
| Cc1ccc2nc(-c3ccc([18F])cc3)sc2c1 | 24.8 |

----------
test: Biodistribution in NMRI mouse cerebrum assessed per gram of tissue at 3.7 MBq/mL, iv after 60 mins by gamma counting; format: ADME, organism-based; conditions: in vivo, 1 h
Label 1 (yes) when Drug uptake is strictly below 1%; otherwise label 0 (no).

| query_smiles | assigned_category |
| --- | --- |
| CNc1ccc2nc(-c3ccc([18F])cc3)sc2c1 | 0 (no) |
| Nc1ccc2nc(-c3ccc([18F])cc3)sc2c1 | 1 (yes) |
| CN(C)c1ccc2nc(-c3ccc([18F])cc3)sc2c1 | 0 (no) |
| Cc1ccc2nc(-c3ccc([18F])cc3)sc2c1 | 1 (yes) |
| [11CH3]Nc1ccc(-c2nc3ccc(O)cc3s2)cc1 | 1 (yes) |

----------
# Drug uptake values compiled below
experiment: Biodistribution in NMRI mouse urine at 3.7 MBq/mL, iv after 2 mins by gamma counting; format: ADME, organism-based; conditions: in vivo
metric: Drug uptake (%)

| query_smiles | unit_info | reading |
| --- | --- | --- |
| [11CH3]Nc1ccc(-c2nc3ccc(O)cc3s2)cc1 | % | 0.2 |
| Cc1ccc2nc(-c3ccc([18F])cc3)sc2c1 | % | 0.2 |
| Nc1ccc2nc(-c3ccc([18F])cc3)sc2c1 | % | 0.2 |
| CN(C)c1ccc2nc(-c3ccc([18F])cc3)sc2c1 | % | 0.1 |
| CNc1ccc2nc(-c3ccc([18F])cc3)sc2c1 | % | 0.2 |

----------
# Drug uptake values compiled below
system: Heart; assay: Biodistribution in NMRI mouse heart at 3.7 MBq/mL, iv after 2 mins by gamma counting; assay type: ADME, organism-based; settings: in vivo
metric: Drug uptake (%)

| query_smiles | target_or_system | reading |
| --- | --- | --- |
| CNc1ccc2nc(-c3ccc([18F])cc3)sc2c1 | Heart | 0.8 |
| [11CH3]Nc1ccc(-c2nc3ccc(O)cc3s2)cc1 | Heart | 0.6 |
| Cc1ccc2nc(-c3ccc([18F])cc3)sc2c1 | Heart | 0.9 |
| CN(C)c1ccc2nc(-c3ccc([18F])cc3)sc2c1 | Heart | 1.2 |
| Nc1ccc2nc(-c3ccc([18F])cc3)sc2c1 | Heart | 0.7 |

Numbers sourced from ChEMBL document CHEMBL1154674.
